All figures here come from the supplement of paper PMC10121225.

# Tested on: hN + hpA co-culture (H1 iNGN2 human neurons + human primary astrocytes)
# assay: presynaptic density (SYNAPSIN1 puncta per MAP2 neurite area), Z-score vs DMSO controls; higher = more presynaptic puncta (synapse-promoting)
# stated_conditions: 3 µM; 72 h
Where a name gives a salt, the structure may show the parent alone.
measurement_label: presynaptic density (Z-score)
Answers are plain numbers.

- molecule: "C[C@H](NCc1ccc(OCc2cccc(F)c2)cc1)C(N)=O [Safinamide Mesylate]"
  presynaptic density (Z-score): -0.055

Respectfully, I request presynaptic density (Z-score) for each entry included below.
1. CC(C)NCC(O)COc1cccc2ccccc12 (stereo unspecified) [Propranolol HCl]
2. O=C(N/N=C/c1ccc(O)c(O)c1)c1cc2ccccc2cc1O
3. COc1ccc(COc2ccc(Cc3cnc(N)nc3N)cc2OC)cc1
4. CCc1cccc2c3c([nH]c12)C(CC)(CC(=O)O)OCC3 (stereo unspecified)
5. CCCS(=O)(=O)Nc1ccc(F)c(C(=O)c2c[nH]c3ncc(-c4ccc(Cl)cc4)cc23)c1F
6. Cc1cccc(CC(=O)N2CCc3c2ccc(-c2cn(C)c4ncnc(N)c24)c3F)n1
7. COc1cccc(C=NCCN=Cc2cccc(OC)c2[O-])c1[O-].[Cl-].[Mn+3]

1. 0.278
2. -0.146
3. -0.788
4. -1.87
5. -0.231
6. -0.752
7. -0.63

----------
# Test system: hN + hpA co-culture (H1 iNGN2 human neurons + human primary astrocytes)
# assay: presynaptic density (SYNAPSIN1 puncta per MAP2 neurite area), Z-score vs DMSO controls; higher = more presynaptic puncta (synapse-promoting)
# stated_conditions: 3 µM; 72 h
For each of the compounds below, state its presynaptic density (Z-score).
Answers are plain numbers.

Sample records with presynaptic density (Z-score):
- compound: "COc1ccc([C@]2(C#N)CC[C@@H](C(=O)O)CC2)cc1OC1CCCC1"
  measured_result: -0.137
- compound: "CC(C)N(CCCNC(=O)Nc1ccc(C(C)(C)C)cc1)C[C@H]1O[C@@H](n2cc(Br)c3c(N)ncnc32)[C@H](O)[C@@H]1O"
  measured_result: -0.407
- compound: "COc1ccc(CC(C)NCC(O)c2ccc(O)c(NC=O)c2)cc1 (stereo not drawn)"
  measured_result: 0.254
- compound: "OC[C@H]1O[C@@H](c2ccc(Cl)c(Cc3ccc(O[C@H]4CCOC4)cc3)c2)[C@H](O)[C@@H](O)[C@@H]1O"
  measured_result: -0.331

Quick request: presynaptic density (Z-score) for each listed item, please.
1. CC(C)NCC(O)COc1ccc(COCCOC(C)C)cc1 (racemic)
2. CN1CCC[C@@H]1CCO[C@](C)(c1ccccc1)c1ccc(Cl)cc1
3. Cc1ccc2nc(NC(=O)CSc3nc4c(c(=O)n3-c3ccccc3)SCC4)sc2c1
4. CC(C)(C)NC(=O)[C@H]1CC[C@H]2[C@@H]3CC[C@H]4NC(=O)C=C[C@]4(C)[C@H]3CC[C@]12C [Finasteride]

1: -0.749; 2: -0.781; 3: -0.234; 4: -0.206

----------
Please provide measured presynaptic density (Z-score) for the entries that follow.
# System: hN + hpA co-culture (H1 iNGN2 human neurons + human primary astrocytes)
# assay: presynaptic density (SYNAPSIN1 puncta per MAP2 neurite area), Z-score vs DMSO controls; higher = more presynaptic puncta (synapse-promoting)
# stated_conditions: 3 µM; 72 h
Structures can show the parent of a compound that is named as a salt.
One number for each entry.

Field: example entries. Status: answers known.
- compound: "COc1ccc2cc(-c3nc(-c4ccc([S+](C)[O-])cc4)[nH]c3-c3ccncc3)ccc2c1 (centres undefined) [Tie2 kinase inhibitor]"
  presynaptic density (Z-score): -0.787
- compound: "Cc1ccc(C(=O)N(CCCN)[C@@H](c2oc3cc(Cl)ccc3c(=O)c2Cc2ccccc2)C(C)C)cc1"
  presynaptic density (Z-score): -3.49
- compound: "COCCOc1ccc2c(c1)ncn2-c1ccc2cccc(N3CCC(N)CC3)c2n1"
  presynaptic density (Z-score): -0.271

Continue with the next compound.
Write down the reported presynaptic density (Z-score) of NCc1c[nH]c(=S)n1C1CCc2c(F)cc(F)cc2C1 [(R)-Nepicastat HCl] , test system: hN + hpA co-culture (H1 iNGN2 human neurons + human primary astrocytes). 0.738

----------
Assign presynaptic density (Z-score) to each entry below.
# Test system: hN + hpA co-culture (H1 iNGN2 human neurons + human primary astrocytes)
# assay: presynaptic density (SYNAPSIN1 puncta per MAP2 neurite area), Z-score vs DMSO controls; higher = more presynaptic puncta (synapse-promoting)
# stated_conditions: 3 µM; 72 h
Structures can show the parent of a compound that is named as a salt.
One number for each entry.

Solved entries (count: 5):
- molecule: "CC(C)(F)C[C@H](N[C@@H](c1ccc(-c2ccc(S(C)(=O)=O)cc2)cc1)C(F)(F)F)C(=O)NC1(C#N)CC1 [Odanacatib (MK-0822)]"
  tested_on: "hN + hpA co-culture (H1 iNGN2 human neurons + human primary astrocytes)"
  measured_result: -0.252
- molecule: "O=C(O)/C=C/c1ccc(Cn2ccnc2)cc1 [Ozagrel HCl]"
  tested_on: "hN + hpA co-culture (H1 iNGN2 human neurons + human primary astrocytes)"
  measured_result: -0.679
- molecule: "Nc1cccc2c1C(=O)N(C1CCC(=O)NC1=O)C2=O (stereo not drawn) [Pomalidomide]"
  tested_on: "hN + hpA co-culture (H1 iNGN2 human neurons + human primary astrocytes)"
  measured_result: 0.469
- molecule: "CC(C)c1onc(-c2c(Cl)cccc2Cl)c1COc1ccc(/C=C/c2cccc(C(=O)O)c2)c(Cl)c1"
  tested_on: "hN + hpA co-culture (H1 iNGN2 human neurons + human primary astrocytes)"
  measured_result: -0.576
- molecule: "O=c1ncn2nc(Sc3ccc(F)cc3F)ccc2c1-c1c(Cl)cccc1Cl"
  tested_on: "hN + hpA co-culture (H1 iNGN2 human neurons + human primary astrocytes)"
  measured_result: 0.626

List the reported presynaptic density (Z-score) of each molecule below.
1. Cc1cc(Nc2ncc(Cl)c(Nc3ccccc3S(=O)(=O)C(C)C)n2)c(OC(C)C)cc1C1CCNCC1
2. CCn1c(=O)c2c(nc(/C=C/c3ccc(OC)c(OC)c3)n2C)n(CC)c1=O [Istradefylline]
3. O[C@@H](COc1cccc2ncccc12)CN1CCN(C2c3ccccc3[C@@H]3[C@H](c4ccccc42)C3(F)F)CC1 (stereo partly drawn)

1: 0.147; 2: -0.775; 3: -1.51

----------
# System: hN + hpA co-culture (H1 iNGN2 human neurons + human primary astrocytes)
# assay: presynaptic density (SYNAPSIN1 puncta per MAP2 neurite area), Z-score vs DMSO controls; higher = more presynaptic puncta (synapse-promoting)
# stated_conditions: 3 µM; 72 h
Where a name gives a salt, the structure may show the parent alone.
Lab note: anything with presynaptic density (Z-score) at or over -0.7 counts as true (1); the rest go in false (0).

- compound: "C[C@@H](NCCCc1cccc(C(F)(F)F)c1)c1cccc2ccccc12 [Cinacalcet HCl]"
  assigned_class: "false (0)"
- compound: "C[C@@H]1CN(CC(=O)Nc2ccc3c(c2)Cc2cccc(-c4cc(=O)cc(N5CCOCC5)o4)c2S3)C[C@H](C)O1"
  assigned_class: "false (0)"
- compound: "C#Cc1cccc(Nc2ncnc3cc4c(cc23)OCCOCCOCCO4)c1"
  assigned_class: "true (1)"
- compound: "O=C(O)/C=C/c1ccc(Cn2ccnc2)cc1 [Ozagrel]"
  assigned_class: "true (1)"
- compound: "COc1cc2c(cc1Cc1cccc(Cl)c1F)c(=O)c(C(=O)O)cn2[C@H](CO)C(C)C"
  assigned_class: "true (1)"
- compound: "COc1nc(C)cnc1NS(=O)(=O)c1cccnc1-c1ccc(-c2nnco2)cc1 [Zibotentan (ZD4054)]"
  assigned_class: "false (0)"

API: above_or_equal(metric=presynaptic density (Z-score), cutoff=-0.7) for item CCn1c(-c2nonc2N)nc2c(C#CC(C)(C)O)ncc(OC[C@H]3CCCNC3)c21 true (1)

Item CC(C)c1noc(N2CCC(COc3ccc(-c4ccc(S(C)(=O)=O)cc4)nc3)CC2)n1 with presynaptic density (Z-score) of -0.7 or above? true (1)

Entry Cc1cc([C@@H](C)Nc2ccccc2C(=O)O)c2nc(N3CCOCC3)cc(=O)n2c1 : is its presynaptic density (Z-score) no less than -0.7? true (1)

----------
# System: hN + hpA co-culture (H1 iNGN2 human neurons + human primary astrocytes);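 further: immunostained co-cultures imaged by high-content microscopy, Z-score per plate against mean and SD of 0.1% DMSO wells, compounds added on differentiation day 18, analysed day 21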
# assay: presynaptic density (SYNAPSIN1 puncta per MAP2 neurite area), Z-score vs DMSO controls; higher = more presynaptic puncta (synapse-promoting)
# stated_conditions: 3 µM; 72 h
Where a name gives a salt, the structure may show the parent alone.
measurement_label: presynaptic density (Z-score)

Here's what some known entries look like.
- compound: "O=C(c1ccc(F)cc1)N1CCCC(c2nc(-c3ccc(F)cc3)no2)C1 (stereo not given)"
  tested_on: "hN + hpA co-culture (H1 iNGN2 human neurons + human primary astrocytes)"
  presynaptic density (Z-score): -0.851
- compound: "N#CSc1cc(SC#N)c(N)nc1N"
  tested_on: "hN + hpA co-culture (H1 iNGN2 human neurons + human primary astrocytes)"
  presynaptic density (Z-score): -0.815

Report presynaptic density (Z-score) for every entry below.
1. CC(NC(=O)c1ccccc1N=Cc1c(O)ccc2ccccc12)c1ccccc1 (stereo not given)
2. C#CCC(Cc1cnc2nc(N)nc(N)c2n1)c1ccc(C(=O)N[C@@H](CCC(=O)O)C(=O)O)cc1 (stereo not given in full) [Pralatrexate]
3. CC(CCc1ccccc1)NCC(O)c1ccc(O)c(C(N)=O)c1 (stereo not given) [Labetalol HCl]

1: 0.165; 2: 0.0678; 3: -0.733

Could you tell me presynaptic density (Z-score) for each of these compounds? They are listed below.
1. C#CCN[C@@H]1CCc2ccccc21 [Rasagiline Mesylate]
2. O=C(Nc1cccc(Cl)c1)c1ccccn1
3. Cc1cc2c(cc1CC(=O)c1sccc1S(=O)(=O)Nc1onc(C)c1Cl)OCO2 [Sitaxentan sodium]
4. Cc1nn(-c2ccccc2)c(C)c1C=NN1CCN(Cc2ccccc2)CC1
5. Cc1c(Cc2ccc3ccccc3n2)c2cc(F)ccc2n1CC(=O)O

1: 0.0894; 2: 0.851; 3: -0.569; 4: -0.2; 5: -1.02
